- Tested on: OVCAR-3
- ASSAY_OVERVIEW: NCI tumour cell line growth inhibition, 48 h
The source made the active and inactive calls. No stated cut-off is given here; in the data, active = GI50 up to about 1.1 µM and inactive = higher.
// allowed return values: active, inactive

>>> print(df.to_string())
                                   compound  assigned_label
0          CSc1cc(-c2ccccn2)nc(-c2ccccn2)c1          active
1                  Cc1ccc(/C=N/Nc2cnccn2)s1        inactive
2  COC(=O)c1ccc2c(c1)CC1(C2)Cc2cc3c(cc2C1)CCC3        inactive
3  CCOC(=O)C1(C(=O)OCC)C[C@]23OCCC(=O)[C@H]2[C@H]2C(=O)OC(C)(C)O[C@]23C1        inactive
4  Cc1ccccc1C(CCCO)C(=O)O (centres undefined)        inactive
5  Cn1cc(-c2n[nH]c(-c3ccc(Cl)cc3)nc2=O)c2ccccc21          active

Prompt: // outcome(item) with item = CCCCCCCCCCCCCCCCOP(=O)(O)OP(=O)(O)OCC1OC(n2ccc(N)nc2=O)C(O)C1O (centres undefined)
Response: inactive

Prompt: // outcome(item) with item = CCOC(=O)C(Cc1ccccc1)NC(=O)c1nc[nH]c1/N=N/N(C)C (centres undefined)
Response: inactive

Prompt: // outcome(item) with item = O=C1CCCCC12CCC/C2=N\O (centres undefined)
Response: inactive

Prompt: // outcome(item) with item = `CS(=O)(=O)Sc1ccc(Cl)cc1`
Response: inactive

Prompt: // outcome(item) with item = `Cc1ccc(S(=O)(=O)OC2=C/C(=N\c3onc(C)c3C)c3ccccc3C2=O)cc1`
Response: inactive
